The origin of these recorded values is ChEMBL document CHEMBL3792374.

# method.description: Induction of nitric oxide release in potassium phosphate buffer at pH 7.4 at 0.1 mM after 120 mins by Griess assay
# Type: physicochemical
# setup.conditions: pH 7.4, 2 h, 100 µM

>  <molecule>
CCCCC(OC(=O)CN1CCN(CCCCCCOc2ccc(-c3cc(=S)ss3)cc2)CC1)c1ccccc1C(=O)Oc1ccc(/C=C/C(=O)OCCCCO[N+](=O)[O-])cc1OC (racemic)

>  <Activity, µM>
5.3

$$$$
>  <molecule>
CCCCC(OC(=O)CN1CCN(CCCCCCOc2ccc(-c3cc(=S)ss3)cc2)CC1)c1ccccc1C(=O)Oc1ccc(/C=C/C(=O)OCCO[N+](=O)[O-])cc1OC (racemic)

>  <Activity, µM>
6.88

$$$$
>  <molecule>
CCCCC(OC(=O)CN1CCN(CCOc2ccc(-c3cc(=S)ss3)cc2)CC1)c1ccccc1C(=O)Oc1ccc(/C=C/C(=O)OCCCCCCO[N+](=O)[O-])cc1OC (racemic)

>  <Activity, µM>
8.76

$$$$
>  <molecule>
CCCCC(OC(=O)CN1CCN(CCCCCOc2ccc(-c3cc(=S)ss3)cc2)CC1)c1ccccc1C(=O)Oc1ccc(/C=C/C(=O)OCCO[N+](=O)[O-])cc1OC (racemic)

>  <Activity, µM>
10.09

$$$$
>  <molecule>
CCCCC(OC(=O)CN1CCN(CCCCCCOc2ccc(-c3cc(=S)ss3)cc2)CC1)c1ccccc1C(=O)Oc1ccc(/C=C/C(=O)OCCCCCCO[N+](=O)[O-])cc1OC (racemic)

>  <Activity, µM>
10.01

$$$$
>  <molecule>
CCCCC(OC(=O)CN1CCN(CCCOc2ccc(-c3cc(=S)ss3)cc2)CC1)c1ccccc1C(=O)Oc1ccc(/C=C/C(=O)OCCCCO[N+](=O)[O-])cc1OC (racemic)

>  <Activity, µM>
3.18

$$$$
>  <molecule>
CCCCC(OC(=O)CN1CCN(CCCCOc2ccc(-c3cc(=S)ss3)cc2)CC1)c1ccccc1C(=O)Oc1ccc(/C=C/C(=O)OCCCCO[N+](=O)[O-])cc1OC (racemic)

>  <Activity, µM>
8.37

$$$$
>  <molecule>
CCCCC(OC(=O)CN1CCN(CCCCOc2ccc(-c3cc(=S)ss3)cc2)CC1)c1ccccc1C(=O)Oc1ccc(/C=C/C(=O)OCCCCCCO[N+](=O)[O-])cc1OC (racemic)

>  <Activity, µM>
5.09

$$$$
